# target.or.test.system: T1, human LAG3 expressed on cells (human, UniProt P18627 23-525)
# T1 sequence (looked up): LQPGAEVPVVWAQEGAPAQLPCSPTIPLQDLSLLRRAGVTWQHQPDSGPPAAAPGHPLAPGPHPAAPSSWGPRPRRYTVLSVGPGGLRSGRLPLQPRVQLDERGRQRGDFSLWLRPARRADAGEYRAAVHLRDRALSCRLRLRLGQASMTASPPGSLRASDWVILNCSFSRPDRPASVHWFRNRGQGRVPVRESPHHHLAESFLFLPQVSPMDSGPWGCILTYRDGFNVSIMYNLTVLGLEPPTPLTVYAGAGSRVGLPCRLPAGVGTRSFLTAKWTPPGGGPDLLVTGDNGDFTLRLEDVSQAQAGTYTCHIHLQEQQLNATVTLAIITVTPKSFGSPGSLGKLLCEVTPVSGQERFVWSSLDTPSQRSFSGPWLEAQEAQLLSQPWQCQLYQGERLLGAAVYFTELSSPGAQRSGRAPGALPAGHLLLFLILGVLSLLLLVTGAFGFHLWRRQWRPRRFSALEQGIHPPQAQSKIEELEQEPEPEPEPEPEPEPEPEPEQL
# test.details: cell-based or functional assay
So I've got a bunch of binders here, and I need their EC50 for IL-2 rescue, hLAG3 Jurkat T system values.
Numbers only, in nM.

Use these answered entries as a reference point.
In: Suppose we examine the binder sdAb No. 27 (VHH, Fc of the tested form not described; also called sdAb 27; not shown: Fc part implied by anti-human Fc capture and anti-human IgG Fc detection) VHH: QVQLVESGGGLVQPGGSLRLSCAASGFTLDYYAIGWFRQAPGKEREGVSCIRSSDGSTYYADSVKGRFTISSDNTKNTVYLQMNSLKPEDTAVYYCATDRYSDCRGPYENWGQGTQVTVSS ; what EC50 for IL-2 rescue, hLAG3 Jurkat T system value has been reported?
Out: 8.49

In: Next binder up: sdAb No. 17 (VHH, Fc of the tested form not described; also called sdAb 17; not shown: Fc part implied by anti-human Fc capture and anti-human IgG1 Fc detection) VHH: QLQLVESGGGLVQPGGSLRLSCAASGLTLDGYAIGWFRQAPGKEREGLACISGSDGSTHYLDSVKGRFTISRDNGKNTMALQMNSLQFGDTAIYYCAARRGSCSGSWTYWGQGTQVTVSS
Out: 7.72

In: Next binder up: sdAb No. 73 (VHH, Fc not described; also called sdAb 73; not shown: Fc part implied by anti-human Fc capture) VHH: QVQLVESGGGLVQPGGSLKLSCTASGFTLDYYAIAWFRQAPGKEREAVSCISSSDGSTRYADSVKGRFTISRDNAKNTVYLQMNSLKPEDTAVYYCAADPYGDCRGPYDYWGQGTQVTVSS
Out: 42.6

In: What do you get for sdAb No. 21 (VHH, Fc of the tested form not described; also called sdAb 21; not shown: Fc part implied by anti-human Fc capture) VHH: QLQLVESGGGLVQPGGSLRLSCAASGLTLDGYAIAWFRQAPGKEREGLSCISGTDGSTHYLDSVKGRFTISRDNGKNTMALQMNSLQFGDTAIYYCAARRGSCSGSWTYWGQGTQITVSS ?
Out: 3.41

In: Query sdAb No. 25 (VHH, Fc of the tested form not described; also called sdAb 25; sdAb #25; not shown: Fc part implied by anti-human Fc capture and anti-human IgG Fc detection) VHH: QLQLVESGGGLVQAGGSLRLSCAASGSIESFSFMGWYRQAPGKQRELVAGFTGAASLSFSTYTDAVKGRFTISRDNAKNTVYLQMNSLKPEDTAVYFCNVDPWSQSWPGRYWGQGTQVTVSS next
Out: 8.12

In: Let us now turn to sdAb No. 24 (VHH, Fc of the tested form not described; also called sdAb 24; not shown: Fc part implied by anti-human Fc capture) VHH: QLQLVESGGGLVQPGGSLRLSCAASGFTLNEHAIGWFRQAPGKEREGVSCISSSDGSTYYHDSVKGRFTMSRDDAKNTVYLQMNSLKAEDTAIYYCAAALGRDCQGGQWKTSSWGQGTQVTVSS
Out: 35.8

More entries:
In: I'd like to know its EC50 for IL-2 rescue, hLAG3 Jurkat T system. The binder in question is sdAb No. 1 (VHH, the tested form was captured by anti-human Fc, its Fc is not described; also called sdAb 1; not shown: Fc part implied by anti-human Fc capture) VHH: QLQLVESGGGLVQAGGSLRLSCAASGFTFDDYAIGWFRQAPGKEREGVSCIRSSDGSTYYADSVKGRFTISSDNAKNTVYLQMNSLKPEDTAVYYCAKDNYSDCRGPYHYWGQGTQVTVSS
Out: 15.7

These measurements were taken from patent US20230303690A1.
